# Target under test: Jak2 (UniProt O60674)
# Sequence (O60674 whole entry, looked up): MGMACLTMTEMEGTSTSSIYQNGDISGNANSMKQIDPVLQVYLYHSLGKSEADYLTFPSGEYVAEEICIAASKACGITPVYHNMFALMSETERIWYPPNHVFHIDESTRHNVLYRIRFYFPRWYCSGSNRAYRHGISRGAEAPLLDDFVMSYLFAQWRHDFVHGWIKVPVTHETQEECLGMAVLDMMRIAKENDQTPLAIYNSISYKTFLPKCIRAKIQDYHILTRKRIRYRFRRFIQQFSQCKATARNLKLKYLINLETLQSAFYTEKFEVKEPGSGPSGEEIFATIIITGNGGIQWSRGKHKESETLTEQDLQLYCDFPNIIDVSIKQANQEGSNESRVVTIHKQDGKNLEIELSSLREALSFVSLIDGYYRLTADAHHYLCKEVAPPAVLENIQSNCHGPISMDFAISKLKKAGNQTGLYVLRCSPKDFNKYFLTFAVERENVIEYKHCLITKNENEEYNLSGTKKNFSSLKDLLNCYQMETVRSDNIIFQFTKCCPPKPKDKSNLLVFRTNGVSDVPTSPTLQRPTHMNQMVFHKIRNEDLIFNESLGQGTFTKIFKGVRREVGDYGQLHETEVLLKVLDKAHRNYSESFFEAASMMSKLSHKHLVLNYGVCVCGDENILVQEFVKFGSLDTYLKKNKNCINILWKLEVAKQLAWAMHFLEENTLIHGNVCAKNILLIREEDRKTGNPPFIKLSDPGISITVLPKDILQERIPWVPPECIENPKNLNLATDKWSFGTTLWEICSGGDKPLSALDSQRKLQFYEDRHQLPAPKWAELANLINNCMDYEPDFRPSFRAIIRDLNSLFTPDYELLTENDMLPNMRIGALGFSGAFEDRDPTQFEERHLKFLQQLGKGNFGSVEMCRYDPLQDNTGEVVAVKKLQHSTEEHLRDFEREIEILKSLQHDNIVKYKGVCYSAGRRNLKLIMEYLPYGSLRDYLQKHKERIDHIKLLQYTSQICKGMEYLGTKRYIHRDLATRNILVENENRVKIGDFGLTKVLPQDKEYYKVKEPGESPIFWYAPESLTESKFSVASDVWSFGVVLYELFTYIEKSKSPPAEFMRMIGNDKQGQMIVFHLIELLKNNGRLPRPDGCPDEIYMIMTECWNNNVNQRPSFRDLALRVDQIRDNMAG
# Method: phosphorylation enrichment, bacterial display (enrichment ratio); higher = better substrate or ligand; peptides without Tyr show the background;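 further: 11-residue human phosphosite peptides and single-mutation variants displayed on the E. coli surface, counted by deep sequencing, each peptide's frequency after selection divided by its frequency in the unselected input library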;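 further: frequency after pTyr selection over input frequency; kinase dosed for 20-30% of maximal phosphorylation in three min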
Test readout: phosphorylation enrichment
Lab note: record the figure alone, no unit after it.

Return the recorded phosphorylation enrichment value; entry: NRVEIYDKTVE [CYFIP1_Y108_E109D] 0.755

Return the recorded phosphorylation enrichment value; entry: NAMRRYIEEFQ [MNS1_Y244] 0.516

Return the recorded phosphorylation enrichment value; entry: NDPMEYAKQHG [ASS1_Y163_L160P] 0.86

Return the recorded phosphorylation enrichment value; entry: KRFRIYHLATS [BRCA2_Y3009_YF] 0.439

Return the recorded phosphorylation enrichment value; entry: KYLENYLNCLL [PLD2_Y169_R172C] 1.28

Return the recorded phosphorylation enrichment value; entry: ANAYIYDVQLP [L1CAM_Y420_V421D] 0.905

Return the recorded phosphorylation enrichment value; entry: GFAGKYIAMVM [CYP19A1_Y441_C437Y_YF] 0.594

Return the recorded phosphorylation enrichment value; entry: QCTSDYPEHVC [SART3_Y541] 1.64

Return the recorded phosphorylation enrichment value; entry: PEYVVYKPQME [CCRL2_Y170_F167Y] 5.75
